Just for reference, patent US20240423973A1 is where these values come from.

Test system: NCI H292
assay_details: Cytotoxicity assay (Version 2), automated, AC50
Assay type: cell-based, human
assay_context: NCI H292 cells, no elastase, Version 2, activity concentration at -50%, 4 parameter Hill-fit
measured_property: AC50

What value of measured AC50 is listed for CCCNC(=O)Nc1cccc(S(=O)(=O)Nc2cccc([C@@H](CC(=O)O)NC(=O)Nc3ccc(NC(=O)NCCOCCOCCOCCC(=O)N[C@@H](CCCCNC(=O)CCCC(=O)N(C)CC(=O)N(C)CC(=O)N(C)CC(=O)N(C)CC(=O)N(C)CC(=O)N(C)CC(=O)N(C)CC(=O)N(C)CC(=O)O)C(=O)NCCOCCOCCOCCC(=O)N[C@@H](CC(=O)O)C(=O)N4CCC[C@H]4C(=O)N[C@H](C(=O)O[C@]4(CC)C(=O)OCc5c4cc4n(c5=O)Cc5c-4nc4ccccc4c5CC)C(C)C)cc3)c2)c1 ?
110 to 1000 nM

---

Measured clearance of individual entries
assay_details: Pharmacokinetics in rat after intravenous administration
Assay type: in vivo
assay_context: male rats, intravenous 0.5 mg/kg bolus, plasma, non-compartmental analysis

molecule="CCCNC(=O)Nc1cccc(S(=O)(=O)Nc2cccc([C@@H](CC(=O)O)NC(=O)Nc3ccc(NC(=O)NCCOCCOCCOCCC(=O)N[C@@H](CCCCNC(=O)CCCC(=O)NCCOCCOCCOCCC(=O)N[C@@H](CC(=O)O)C(=O)N4CCC[C@H]4C(=O)N[C@H](C(=O)O[C@]4(CC)C(=O)OCc5c4cc4n(c5=O)Cc5c-4nc4ccccc4c5CC)C(C)C)C(=O)NCCC(=O)O)cc3)c2)c1 [Compound E1]" measured_property=clearance reported="0.5 to 5 mL/min/kg"
molecule="CCCNC(=O)Nc1cccc(S(=O)(=O)Nc2cccc([C@@H](CC(=O)O)NC(=O)Nc3ccc(NC(=O)NCCOCCOCCOCCC(=O)N[C@@H](CCCCNC(=O)CCCC(=O)NCCOCCOCCOCCC(=O)N[C@@H](CC(=O)O)C(=O)N4CCC[C@H]4C(=O)N[C@H](C(=O)O[C@]4(CC)C(=O)OCc5c4cc4n(c5=O)Cc5c-4nc4ccccc4c5CC)C(C)C)C(=O)NCCCCCCCC(=O)O)cc3)c2)c1 [Compound E2]" measured_property=clearance reported="0.5 to 5 mL/min/kg"

Would you kindly look at the next entry?
What value of measured clearance is listed for CCCNC(=O)Nc1cccc(S(=O)(=O)Nc2cccc([C@@H](CC(=O)O)NC(=O)Nc3ccc(NC(=O)NCCOCCOCCOCCC(=O)NCCCC[C@H](NC(=O)CCOCCOCCOCCNC(=O)Nc4ccc(NC(=O)N[C@H](CC(=O)O)c5cccc(NS(=O)(=O)c6cccc(NC(=O)NCCC)c6)c5)cc4)C(=O)NCCOCCOCCOCCC(=O)N[C@@H](CC(=O)O)C(=O)N4CCC[C@H]4C(=O)N[C@H](C(=O)O[C@]4(CC)C(=O)OCc5c4cc4n(c5=O)Cc5c-4nc4ccccc4c5CC)C(C)C)cc3)c2)c1 ?
0.05 to 0.5 mL/min/kg

---

Measured IC50 of individual entries
Test system: NCI H292
assay_details: Cytotoxicity in vitro in the presence and absence of elastase (MTT assay)
Assay type: cell-based, human
assay_context: NCI H292 cells, with 10 nM elastase, 72 h

compound="CCCNC(=O)Nc1cccc(S(=O)(=O)Nc2cccc([C@@H](CC(=O)O)NC(=O)Nc3ccc(NC(=O)NCCN(C)CCN(C)CCN(C)CC(=O)NCCN(C)CCN(C)CCN(C)CC(=O)N[C@@H](CC(N)=O)C(=O)N4CCC[C@H]4C(=O)N[C@H](C(=O)O[C@]4(CC)C(=O)OCc5c4cc4n(c5=O)Cc5c-4nc4ccccc4c5CC)C(C)C)cc3)c2)c1 [Compound D1]" reported="1.1 to 10 nM"
compound=CCCNC(=O)Nc1cccc(S(=O)(=O)Nc2cccc([C@H](CC(=O)O)NC(=O)Nc3ccc(NC(=O)NCCN(C)CCN(C)CCN(C)CC(=O)NCCCC[C@H](NC(=O)CN(C)CCN(C)CCN(C)CCNC(=O)Nc4ccc(NC(=O)N[C@@H](CC(=O)O)c5cccc(NS(=O)(=O)c6cccc(NC(=O)NCCC)c6)c5)cc4)C(=O)NCCN(C)CCN(C)CCN(C)CC(=O)N[C@@H](CC(N)=O)C(=O)N4CCC[C@H]4C(=O)N[C@H](C(=O)O[C@]4(CC)C(=O)OCc5c4cc4n(c5=O)Cc5c-4nc4ccccc4c5CC)C(C)C)cc3)c2)c1 reported="0.1 to 1 nM"
compound="CCCNC(=O)Nc1cccc(S(=O)(=O)Nc2cccc([C@@H](CC(=O)O)NC(=O)Nc3ccc(NC(=O)NCCOCCOCCOCCC(=O)N[C@@H](CC(=O)OCCCCN(C)C)C(=O)N4CCC[C@H]4C(=O)N[C@H](C(=O)O[C@]4(CC)C(=O)OCc5c4cc4n(c5=O)Cc5c-4nc4ccccc4c5CC)C(C)C)cc3)c2)c1 [Compound C6]" reported="0.1 to 1 nM"

Would you kindly look at the next entry?
What value of measured IC50 is listed for CCCNC(=O)Cc1cccc(S(=O)(=O)Nc2cccc([C@@H](CC(=O)O)NC(=O)Nc3ccc(NC(=O)NCCOCCOCCOCCC(=O)N[C@@H](CCCCNC(=O)CCOCCOCCOCCNC(=O)Nc4ccc(NC(=O)N[C@H](CC(=O)O)c5cccc(CS(=O)(=O)c6cccc(NC(=O)NCCC)c6)c5)cc4)C(=O)NCCN(C)CCN(C)CCN(C)CC(=O)N[C@@H](CC(N)=O)C(=O)N4CCC[C@H]4C(=O)N[C@H](C(=O)O[C@]4(CC)C(=O)OCc5c4cc4n(c5=O)Cc5c-4nc4ccccc4c5CC)C(C)C)cc3)c2)c1 ?
< 0.01 nM

---

Tested on: SUM149
assay_details: Cytotoxicity in vitro in the presence and absence of elastase (MTT assay)
Assay type: cell-based
assay_context: SUM149 cells, compound alone (no elastase), 72 h
measured_property: IC50

compound="CCCNC(=O)Nc1cccc(S(=O)(=O)Nc2cccc([C@@H](CC(=O)O)NC(=O)Nc3ccc(NC(=O)NCCOCCOCCOCCC(=O)N[C@@H](CC(=O)OCCCCN(C)C)C(=O)N4CCC[C@H]4C(=O)N[C@H](C(=O)O[C@]4(CC)C(=O)OCc5c4cc4n(c5=O)Cc5c-4nc4ccccc4c5CC)C(C)C)cc3)c2)c1 [Compound C3]" target=SUM149 reported="1.1 to 10 nM"
compound="CCCNC(=O)Nc1cccc(S(=O)(=O)Nc2cccc([C@@H](CC(=O)O)NC(=O)Nc3ccc(NC(=O)NCCN(C)CCN(C)CCN(C)CC(=O)NCCN(C)CCN(C)CCN(C)CC(=O)N[C@@H](CC(N)=O)C(=O)N4CCC[C@H]4C(=O)N[C@H](C(=O)O[C@]4(CC)C(=O)OCc5c4cc4n(c5=O)Cc5c-4nc4ccccc4c5CC)C(C)C)cc3)c2)c1 [Compound D1]" target=SUM149 reported="10 to 100 nM"

What value of measured IC50 is listed for CCCNC(=O)Nc1cccc(S(=O)(=O)Nc2cccc([C@@H](CC(=O)O)NC(=O)Nc3ccc(NC(=O)NCCOCCOCCOCCC(=O)N[C@@H](CC(=O)OCCCCN(C)C)C(=O)N4CCC[C@H]4C(=O)N[C@H](C(=O)O[C@]4(CC)C(=O)OCc5c4cc4n(c5=O)Cc5c-4nc4ccccc4c5CC)C(C)C)cc3)c2)c1 [Compound C6] ?
10 to 100 nM

Then this compound: CCCNC(=O)Cc1cccc(S(=O)(=O)Nc2cccc([C@@H](CC(=O)O)NC(=O)Nc3ccc(NC(=O)NCCOCCOCCOCCC(=O)N[C@@H](CCCCNC(=O)CCOCCOCCOCCNC(=O)Nc4ccc(NC(=O)N[C@H](CC(=O)O)c5cccc(CS(=O)(=O)c6cccc(NC(=O)NCCC)c6)c5)cc4)C(=O)NCCN(C)CCN(C)CCN(C)CC(=O)N[C@@H](CC(N)=O)C(=O)N4CCC[C@H]4C(=O)N[C@H](C(=O)O[C@]4(CC)C(=O)OCc5c4cc4n(c5=O)Cc5c-4nc4ccccc4c5CC)C(C)C)cc3)c2)c1
1.1 to 10 nM

Then this compound: CCCNC(=O)Nc1cccc(S(=O)(=O)Nc2cccc([C@H](CC(=O)O)NC(=O)Nc3ccc(NC(=O)NCCN(C)CCN(C)CCN(C)CC(=O)NCCN(C)CCN(C)CCN(C)CC(=O)N[C@@H](CC(N)=O)C(=O)N4CCC[C@H]4C(=O)N[C@H](C(=O)O[C@]4(CC)C(=O)OCc5c4cc4n(c5=O)Cc5c-4nc4ccccc4c5CC)C(C)C)cc3)c2)c1 [Compound D2]
1.1 to 10 nM
